test-protocol: Primary qHTS to identify inhibitors of SARS-CoV-2 cell entry (AID 1645846); also: nearly all actives have a fitted effect of over 45% in size; also: potency is read from the fitted curve at half-maximal effect
measurement-conditions: SARS-CoV-2 pseudovirus cell entry assay, luminescence; series mostly up to 57.1 µM
Results filed as inconclusive are left out. The source made the active and inactive calls. Calls follow the shape of the full dose curve.
endpoint-name: Potency

molecule	endpoint-name	value-observed
C#Cc1cccc(Nc2ncnc3cc(OC)c(OCCCCCCC(=O)NO)cc23)c1	Potency	inactive
CCN1CCN(c2cc3c(cc2F)c(=O)c(C(=O)O)cn3C2CC2)CC1	Potency	inactive
[O-][n+]1cccc(/C(Cl)=N/OC[C@@H](O)CN2CCCCC2)c1	Potency	inactive
CC(C)c1onc(-c2c(Cl)cccc2Cl)c1COc1ccc(/C=C/c2cccc(C(=O)O)c2)c(Cl)c1	Potency	inactive
CC(C)(C)c1cc(C(=O)O)c(NC(=O)Nc2ccc3[nH]ncc3c2)s1	Potency	inactive
Cc1cccc(-c2nn(C(=S)Nc3ccccc3)cc2-c2ccnc3ccccc23)n1	Potency	inactive

Enquiry: Requested field: Potency. Item: NC(=O)C1CCCc2c1[nH]c1ccc(Cl)cc21 (stereo not drawn)
Return: inactive

Enquiry: Now give it for COc1ccc2c(c1)CC[C@@H](CN(C)CC(=O)O)[C@H]2c1ccccc1 too.
Return: inactive

Enquiry: Now give it for CC(=O)Nc1ccc([C@H](C)C(=O)Nc2ncc(C(C)C)s2)cc1 too.
Return: 3.55 µM (active)

Enquiry: Now give it for COc1ccc(N(C(=O)Oc2c(C)cccc2C)c2ccnc(Nc3ccc(N4CCN(C)CC4)cc3)n2)c(OC)c1 too.
Return: inactive

Enquiry: Now give it for Cn1cc(-c2ccc3nnc(C(F)(F)c4ccc5ncccc5c4)n3n2)cn1 too.
Return: inactive

Enquiry: Now give it for CC(Cc1ccc(O)cc1)NCC(O)c1cc(O)cc(O)c1 (stereo not drawn) too.
Return: inactive

Enquiry: Now give it for COc1ncnc(NS(=O)(=O)c2ccc(N)cc2)c1OC too.
Return: inactive

Enquiry: Now give it for Cc1nn(Cc2ccccc2Cl)c(C)c1CN(C)CC(O)COc1ccc(Cl)cc1 (stereo not drawn) too.
Return: 31.6 µM (active)

Enquiry: Now give it for CN1CCN(c2c(F)cc3c(=O)c(C(=O)O)cn4c3c2OCN4C)CC1 too.
Return: inactive

* * *

test-protocol: Primary qHTS to identify inhibitors of SARS-CoV-2 cell entry (AID 1645846); also: nearly all actives have a fitted effect of over 45% in size
measurement-conditions: SARS-CoV-2 pseudovirus cell entry assay, luminescence; at 57.1 µM (top of the series) unless noted
Records with an inconclusive call do not appear.
Overview of reported activity change, negative = inhibition across a group of compounds:
Give just the numeric value; % need not be written.

compound	activity change, negative = inhibition (%)
O=C(NCC1CCOCC1)c1cnc(Nc2ccc(Cl)cc2Cl)nc1C(F)(F)F	-4.18
CCNC(=O)CC1N=C(c2ccc(Cl)cc2)c2cc(OC)ccc2-n2c(C)nnc21 (stereo not given)	-16.5
O=C1[C@H](Cc2ccc(O)cc2)N2C(=O)CCN(C(=O)NCc3ccccc3)[C@H]2CN1Cc1cccc2ccccc12	-93.3
CCc1c(C(=O)C(N)=O)c2c(OCC(=O)O)cccc2n1Cc1ccccc1	-66.7
COc1ccc(C(=O)c2c(C)n(CCN3CCOCC3)c3cc(I)ccc23)cc1	-80.5
CCCC[N+]1(C)[C@H]2CC(OC(=O)[C@H](CO)c3ccccc3)C[C@H]1[C@H]1O[C@H]12 (stereo not given in full)	-13.1
Cc1ccccc1N=Nc1ccc(N=Nc2c(O)ccc3ccccc23)c(C)c1	-23
COc1c(C)cnc(Cn2cnc3c(Cl)nc(N)nc32)c1C	-96.5

Enquiry: Requested field: activity change, negative = inhibition. Item: CN1[C@@H]2CC[C@H]1CC(OC(=O)C(O)c1ccccc1)C2 (stereo not given in full)
Return: -6.45

Enquiry: Now give it for Cn1c2cc(S(C)=O)sc2c2cnn(Cc3cccc(N)c3)c(=O)c21 (stereo not given) too.
Return: -23.3

Enquiry: Now give it for CCOC(=O)Nc1ccc(NCc2ccc(F)cc2)cc1N too.
Return: 2.18

Enquiry: Now give it for CSCC[C@@H](NC(=O)[C@@H](Cc1ccccc1)NC(=O)CNC(=O)CNC(=O)[C@@H](N)Cc1ccc(O)cc1)C(=O)O too.
Return: -0.623

* * *

test-protocol: qHTS of pediatric cancer cell lines to identify multiple opportunities for drug repurposing: Confirmatory screen for DAOY cells (AID 1347114); also: nearly all actives have a fitted effect of over 65% in size
measurement-conditions: DAOY medulloblastoma cells viability, cytotoxicity qHTS; series mostly up to 45.9 µM
Protocol: Drug repurposing or repositioning has been offered as a strategy for drug development in oncology programs. […] [1] Shen, M et al. Quantitative high-throughput phenotypic screening of pediatric cancer cell lines identifies multiple opportunities for drug repurposing. […] Cells were assayed in growth media at a density of 500-1,000 cells/well. […] After a 15 min incubation at room temperature, samples were analyzed for luminescence intensity using a ViewLux High-throughput CCD imager equipped with clear filters.
Records with an inconclusive call do not appear. Activity calls are given as the source filed them. Calls follow the shape of the dose curve; as a rule, active = well fitted cell-killing curve with a large enough effect; inconclusive = small, poorly fitted or top-dose-only effect; inactive = no such curve, though single readings can be large or run the other way.
Please reply with one of these outcomes: active, inactive

Completed entries (count: 3):
compound	label-value
O=[N+]([O-])c1c(Cl)c(Cl)cc(Cl)c1Cl	inactive
CCC(=O)OC1CCC2C3CCC4=CC(=O)CC[C@@]4(C)C3CC[C@]12C (stereo not given in full)	inactive
CC(C)N[C@@H]1CCn2c(=O)[nH]c3cccc(c32)[C@@H]1O	inactive

Enquiry: What call does the record list for CC(=Cc1csc(C)n1)[C@@H]1C[C@H]2O[C@]2(C)CCC[C@H](C)[C@@H](O)[C@@H](C)C(=O)C(C)(C)[C@@H](O)CC(=O)O1 ?
Return: active

Enquiry: Now give it for COC1=CC(C)=C[C@@H](C)[C@@H](O)[C@@H](C)CC(C)=CC=C[C@H](OC)[C@H]([C@@H](C)[C@@H](O)[C@H](C)[C@@]2(O)C[C@@H](O)[C@H](C)[C@@H](C(C)C)O2)OC1=O too.
Return: inactive

Enquiry: Now give it for O=C(Nc1ccncc1)C(=O)c1cn(Cc2ccc(Cl)cc2)c2ccccc12 too.
Return: active

Enquiry: Now give it for O=C(O)COc1nc(Cl)c(Cl)cc1Cl too.
Return: inactive

Enquiry: Now give it for C[C@@]12OC(=O)[C@]1([C@@H](O)[C@@H]1C=CCCC1)NC(=O)[C@H]2CCCl too.
Return: active

Enquiry: Now give it for Cc1ccccc1-n1c(Cn2ncc3c(N)ncnc32)nc2cccc(C)c2c1=O too.
Return: inactive

Enquiry: Now give it for O=c1[nH]c2ccc(Cl)cc2c(N[C@@H]2CN3CCC2CC3)c1-c1nc2ccccc2[nH]1 too.
Return: active

Enquiry: Now give it for COc1ccc(C(=O)c2c(C)n(CCN3CCOCC3)c3cc(I)ccc23)cc1 too.
Return: active

Enquiry: Now give it for CC[C@@]1(O)C(=O)OCc2c1cc1n(c2=O)Cc2cc3ccccc3nc2-1 too.
Return: active

Enquiry: Now give it for O=C(N[C@H]1CN2CCC1CC2)c1ccc(Cl)cc1 too.
Return: inactive

Enquiry: Now give it for CC(C)[C@]12O[C@@H]1[C@@H]1O[C@]13[C@]1(O[C@H]1C[C@@H]1C4=C(CC[C@@]13C)C(=O)OC4)[C@H]2O too.
Return: active

Enquiry: Now give it for CC1=C(O)C(=O)C=C2C1=CC=C1[C@@]2(C)CC[C@@]2(C)[C@@H]3C[C@](C)(C(=O)O)CC[C@]3(C)CC[C@]12C too.
Return: active

* * *

Overview of reported activity change, negative = inhibition across a group of molecules:
test-protocol: AP1 Signaling Pathway (AID 357);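 also: ME-180 reporter cells stimulated with EGF at its EC50 level; % is scaled to controls: 0 for no effect and ±100 for the full control effect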
measurement-conditions: ME-180 (cervical carcinoma) AP-1-bla reporter, EGF-induced, beta-lactamase ratio, 5 h; at 38 µM (top of the series)
Inconclusive results are not listed. Calls of active or inactive are those of the source. Calls follow the shape of the dose curve; as a rule, active = well fitted curve in either direction with a large enough effect (not every such curve was filed as active); inconclusive = small, poorly fitted or top-dose-only effect, or another doubt; inactive = flat fitted curve, though single readings scatter.

Examples with their reported activity change, negative = inhibition follow.
> print(dat)
                                        mol     value.observed
1                        CNCCc1ccc(O)c(O)c1  -12.9% (inactive)
2  Clc1cnc(Oc2ccc(Oc3ncc(Cl)cc3Cl)cc2)c(Cl)c1   8.39% (inactive)
3                   Cc1nccc2c1[nH]c1ccccc12  -14.9% (inactive)
4                     O=C1CCCN1CC#CCN1CCCC1    8.1% (inactive)
5  CC[C@@]1(O)C(=O)OCc2c1cc1n(c2=O)Cc2cc3ccccc3nc2-1    -97.5% (active)
6      C[C@@H]1O[C@H](C[N+](C)(C)C)C[C@H]1O   15.5% (inactive)
7                             Cn1cnc(CCN)c1   7.44% (inactive)
8    CC1=NN=C(c2ccc(N)cc2)c2cc3c(cc2C1)OCO3  -19.4% (inactive)

Enquiry: Requested field: activity change, negative = inhibition. Item: C#CCOC(=O)C1=CCCN(C)C1
Return: 16.6% (inactive)

Enquiry: Now give it for CC(=O)NCCc1c[nH]c2ccccc12 too.
Return: 3.76% (inactive)

Enquiry: Now give it for NCc1cc(=O)[nH]o1 too.
Return: 1.2% (inactive)

Enquiry: Now give it for CC(C)Oc1cccnc1N(C)C1CCN(Cc2ccccc2)CC1 too.
Return: 2.27% (inactive)
